test: xn = mol fraction of the nth substance listed
run_conditions: 323.15 K; 101.3 kPa; x1 = 0.3
measured_attribute: viscosity (mPa·s)

{"molecule": "C=C[n+]1ccn(CCCC)c1.N[C@@H](CO)C(=O)[O-] + O", "value_units": "mPa·s", "viscosity": 8.81}

(A) C=Cn1cc[n+](CCCC)c1.NCC(=O)[O-] + O
(B) C=C[n+]1ccn(CCCC)c1.NCCCC[C@H](N)C(=O)[O-] + O
Exam item: Could you tell me which of A and B has the lower viscosity reading? // return label of chosen record
Marked response: B
(B: 3.57 mPa·s, A: 11.28 mPa·s)

###

test: xn = mol fraction of the nth substance listed
run_conditions: 293.15 K; 101.3 kPa; x1 = 0.1
measured_attribute: viscosity (mPa·s)

{"compound": "C=C[n+]1ccn(CCCC)c1.N[C@@H](Cc1c[nH]cn1)C(=O)[O-] + O", "viscosity / mPa·s": 2.55}

(a) C=Cn1cc[n+](CCCC)c1.NCC(=O)[O-] + O
(b) C=C[n+]1ccn(CCCC)c1.NCCCC[C@H](N)C(=O)[O-] + O
Exam item: Could you please tell me which of these two has the higher viscosity: a or b ? Which one? Tell me its label.
Marked response: a
(a: 7.17 mPa·s, b: 3.29 mPa·s)

The measurements presented in this section are drawn from a compilation of properties of binary mixtures (doi:10.1016/j.molliq.2022.119944).
